Test system: A673/TR/shEF
PROTOCOL_SUMMARY: cell viability (LOESS-normalised, relative to median of negative controls) (log2 ratio); higher = more viable cells (less compound effect), active = hit call of the paper (over 3 MAD below the median)
RUN_PARAMETERS: 2.5 µM; library screen: screen1; EWS-FLI1 expression: high (no doxycycline); treatment time: 72 h
Out of some 3,200 compounds screened, about 300 (9.4%) showed activity. The entries come from a sample that favours actives as a whole.
Labels: active, inactive

| MOLECULE | LABEL_VALUE |
| --- | --- |
| COc1cc(/C=C/C=O)cc(OC)c1OC | inactive |
| COc1c(O)cc(O)cc1O | inactive |
| CO[C@H]1C[C@H](O[C@@H]2/C(C)=C/C[C@@H]3C[C@@H](C[C@]4(CC[C@H](C)[C@@H](C5CCCCC5)O4)O3)OC(=O)[C@@H]3C=C(C)/C(=N/O)[C@H]4OC/C(=C\C=C\[C@@H]2C)[C@]43O)O[C@@H](C)[C@@H]1O | inactive |
| Cn1cnnc1SCC(=O)N1c2ccccc2C(C)(c2ccccc2)CC1(C)C (stereo unspecified) | inactive |
| O=C(/C=C/c1ccc(O)c(O)c1)O[C@H](Cc1ccc(O)c(O)c1)C(=O)O | inactive |
| CC(C)=CCC/C(C)=C/C=C/C(C)=C/C=C/C(C)=C/C=C/C=C(C)/C=C/C=C(C)/C=C/C=C(\C)CCC=C(C)C | inactive |
| Cc1ccc(OCC(=O)N2CCC(C)CC2)c(C)c1 | inactive |
| O=C(Cc1ccccc1)NO | inactive |
| COCc1cc(O)c(O)c(O)c1-c1c(COC)cc(O)c(O)c1O | inactive |
| CCOC(=O)c1c(C)cc(O)cc1O | inactive |
| Cc1ccc(S(=O)(=O)/C=C/C#N)cc1 | active |
| CC(C)CCC[C@@H](C)[C@H]1CC[C@H]2[C@@H]3CC[C@H]4C[C@@H](O)CC[C@]4(C)[C@H]3CC[C@]12C | inactive |
| O=C(Nc1ccccc1)Nc1ccccc1 | inactive |
| CC(=O)O[C@H]1CC[C@@]2(C)C(CC[C@]3(C)C2CC=C2C4CC(C)(C)CC[C@]4(C)CCC23C)C1(C)C (stereo partly specified) | inactive |
| CC(=O)O[C@@H]1CC2C(C)(C)C=CC(=O)[C@]2(C)C2CC[C@@]3(C)[C@H](c4ccoc4)OC(=O)C4OC43[C@@]21C (stereo partly specified) | inactive |
| COc1cc(O)c(C)c(O)c1 | inactive |
| CCOC(=O)C1=C(C)N=C2SC(C)C(=O)N2C1c1ccc(OC)cc1 (stereo unspecified) | inactive |
| CC1(C)C2CC(=O)[C@]3(C)C(CC[C@@]4(C)[C@H](C(=O)O)OC(=O)C5OC543)[C@@]2(C)[C@@H](O)C[C@H]1O (stereo partly specified) | inactive |
| CCN1C(=O)/C(=C\c2cn(CCC#N)nc2-c2ccc(F)cc2)SC1=S | inactive |
| CC(=O)CCC(=O)O | inactive |
| COc1cc2ccc(=O)oc2c(OC)c1OC | inactive |

###

Tested on: A673/TR/shEF
PROTOCOL_SUMMARY: cell viability (LOESS-normalised, relative to median of negative controls) (log2 ratio); higher = more viable cells (less compound effect), active = hit call of the paper (over 3 MAD below the median)
RUN_PARAMETERS: 0.25 µM; library screen: screen1; EWS-FLI1 expression: low (doxycycline-induced shRNA knockdown); treatment time: 72 h
The campaign covered roughly 3,200 compounds. About 300 (9.4%) showed activity. Many of the other results were omitted from the sample, so actives are more common in it than they were.

| COMPOUND | cell viability (log2) |
| --- | --- |
| COc1ccc2c(c1)OCC(=Cc1ccc(OC)c(O)c1)C2=O | 0.0739 |
| CC(C)CCC[C@@H](C)[C@H]1CC[C@H]2[C@@H]3CC[C@@H]4C[C@H](O)CC[C@]4(C)[C@H]3CC[C@]12C | 0.0181 |
| C=C1C(CCl)(CCl)C2(Cl)C(Cl)C(Cl)C1(Cl)C2(Cl)Cl (centres undefined) | 0.021 |
| C[C@@H]1CC[C@@]2(OC1)O[C@H]1C[C@H]3[C@@H]4CC[C@H]5C[C@@H](O)CC[C@]5(C)[C@H]4CC(=O)[C@]3(C)[C@H]1[C@@H]2C | -0.00894 |
| O=c1cc(N2CCOCC2)oc2c(-c3ccccc3)cccc12 | 0.0333 |
| O=c1cc(-c2ccccc2)oc2c(O)c(O)ccc12 | -0.0108 |
| COc1cc([C@@H]2c3cc4c(cc3[C@@H](O[C@@H]3O[C@@H]5CO[C@@H](C)O[C@H]5[C@H](O)[C@H]3O)[C@H]3COC(=O)[C@H]23)OCO4)cc(OC)c1O | 0.0298 |
| COc1cc(C2NC(=S)NC(C)=C2C(=O)Nc2cccc(Cl)c2)cc(OC)c1OC (centres undefined) | 0.0893 |
| CCN1CCN(CC(O)COc2cc(C)c(Cl)c(C)c2)CC1 (centres undefined) | 0.0372 |
